The reported numbers originate from the supplement of paper PMC11061612.

Tested on: FLO-1 (Esophageal Adenocarcinoma)
protocol details: combination Emax (second highest fraction inhibited in the dose matrix, 72 h); higher = more inhibition; extreme values may be limits of the assay
Kindly return 1 (yes) if reported combination Emax is no lower than 0.7; return 0 (no) if it is lower.

molecule	cat
NC1(C(=O)N[C@@H](CCO)c2ccc(Cl)cc2)CCN(c2ncnc3[nH]ccc23)CC1 [Capivasertib] + C[C@@H]1COCCN1C2=NC(=NC(=C2)C3(CC3)[S@](=N)(=O)C)C4=C5C=CNC5=NC=C4 [AZD6738] (first compound max 10 µM, 7x7, partner max 10 µM)	0 (no)
N#Cc1cnc(Nc2cc(NC[C@H]3CNCCO3)c(C(F)(F)F)cn2)cn1 [SRA737] + O=c1[nH]cc(F)c(=O)[nH]1 [5-Fluorouracil] (first compound max 10 µM, 7x7, partner max 20 µM)	1 (yes)
Cc1cc2ncnn2cc1Nc1ncc2c(n1)n(C1CCOCC1)c(=O)n2C [AZD7648] + CN(C)CCCOc1ccc(-c2ccc3ncc4c(c3c2)n(C2CCOCC2)c(=O)n4C)cn1 [AZD0156] (first compound max 10 µM, 7x7, partner max 1 µM)	0 (no)
CC(=O)c1c(C)c2cnc(Nc3ccc(N4CCNCC4)cn3)nc2n(C2CCCC2)c1=O [Palbociclib] + Cn1cnc2c(F)c(Nc3ccc(Br)cc3Cl)c(C(=O)NOCCO)cc21 [Selumetinib] (first compound max 10 µM, 7x7, partner max 10 µM)	0 (no)
CCN(CCO)CCCOc1ccc2c(Nc3cc(CC(=O)Nc4cccc(F)c4)[nH]n3)ncnc2c1 [AZD2811] + C=CCn1c(=O)c2cnc(Nc3ccc(N4CCN(C)CC4)cc3)nc2n1-c1cccc(C(C)(C)O)n1 [AZD1775] (first compound max 1 µM, partner max 1 µM)	1 (yes)

* * *

Tested on: LOUCY (T-Lymphoblastic Leukemia)
protocol details: combination Emax (second highest fraction inhibited in the dose matrix, 72 h); higher = more inhibition; extreme values may be limits of the assay
readout: combination Emax

molecule	readout	obs value
O=C(c1cc(Cc2n[nH]c(=O)c3ccccc23)ccc1F)N1CCN(C(=O)C2CC2)CC1 [Olaparib] + Cc1c2c(nn1C)CSCc1cc(n(C)n1)CSc1cc(c3ccccc3c1)OCCCc1c(C(=O)O)n(C)c3c-2c(Cl)ccc13 [AZD5991] (first compound max 10 µM, 7x7, partner max 1 µM)	combination Emax	0.234
CN(C)CCCOc1ccc(-c2ccc3ncc4c(c3c2)n(C2CCOCC2)c(=O)n4C)cn1 [AZD0156] + C[C@@H]1COCCN1C2=NC(=NC(=C2)C3(CC3)[S@](=N)(=O)C)C4=C5C=CNC5=NC=C4 [AZD6738] (first compound max 1 µM, 7x7, partner max 10 µM)	combination Emax	1
CN(C)CCCOc1ccc(-c2ccc3ncc4c(c3c2)n(C2CCOCC2)c(=O)n4C)cn1 [AZD0156] + C=CCn1c(=O)c2cnc(Nc3ccc(N4CCN(C)CC4)cc3)nc2n1-c1cccc(C(C)(C)O)n1 [AZD1775] (first compound max 1 µM, partner max 1 µM)	combination Emax	1
COc1cccc(OCCCN)c1-c1cc(Nc2cnc(C#N)cn2)n[nH]1 [Prexasertib] + CN(C)CCCOc1ccc(-c2ccc3ncc4c(c3c2)n(C2CCOCC2)c(=O)n4C)cn1 [AZD0156] (first compound max 1 µM, 7x7, partner max 1 µM)	combination Emax	1
Cc1c2c(nn1C)CSCc1cc(n(C)n1)CSc1cc(c3ccccc3c1)OCCCc1c(C(=O)O)n(C)c3c-2c(Cl)ccc13 [AZD5991] + C[C@@H](Nc1cc(F)cc(F)c1)c1cc(C(=O)N(C)C)cc2c(=O)cc(N3CCOCC3)oc12 [AZD8186] (first compound max 1 µM, 7x7, partner max 3 µM)	combination Emax	0.47
C[C@@H](c1ccc2nccn2c1)n1nnc2ncc(-c3cnn(C)c3)nc21 [Savolitinib] + Cc1c2c(nn1C)CSCc1cc(n(C)n1)CSc1cc(c3ccccc3c1)OCCCc1c(C(=O)O)n(C)c3c-2c(Cl)ccc13 [AZD5991] (first compound max 1 µM, 7x7, partner max 1 µM)	combination Emax	0.46
NC1(C(=O)N[C@@H](CCO)c2ccc(Cl)cc2)CCN(c2ncnc3[nH]ccc23)CC1 [Capivasertib] + CC(=O)c1c(C)c2cnc(Nc3ccc(N4CCNCC4)cn3)nc2n(C2CCCC2)c1=O [Palbociclib] (first compound max 10 µM, 7x7, partner max 10 µM)	combination Emax	0.688

* * *

combination Emax by entry:
Test system: CML-T1 (Chronic Myelogenous Leukemia)
protocol details: combination Emax (second highest fraction inhibited in the dose matrix, 72 h); higher = more inhibition; extreme values may be limits of the assay

compound	assayed target	combination Emax
CN(C)CCCOc1ccc(-c2ccc3ncc4c(c3c2)n(C2CCOCC2)c(=O)n4C)cn1 [AZD0156] + CCN(CCO)CCCOc1ccc2c(Nc3cc(CC(=O)Nc4cccc(F)c4)[nH]n3)ncnc2c1 [AZD2811] (first compound max 1 µM, 7x7, partner max 1 µM)	CML-T1 (Chronic Myelogenous Leukemia)	0.259
O=C(c1cc(Cc2n[nH]c(=O)c3ccccc23)ccc1F)N1CCN(C(=O)C2CC2)CC1 [Olaparib] + COc1nnc2ccc(N3CCC(c4ccc(OCCN5CCN(C)C(=O)[C@H]5C)cc4)CC3)nn12 [AZD5153] (first compound max 10 µM, 7x7, partner max 1 µM)	CML-T1 (Chronic Myelogenous Leukemia)	0.852
COc1nnc2ccc(N3CCC(c4ccc(OCCN5CCN(C)C(=O)[C@H]5C)cc4)CC3)nn12 [AZD5153] + C[C@@H]1COCCN1C2=NC(=NC(=C2)C3(CC3)[S@](=N)(=O)C)C4=C5C=CNC5=NC=C4 [AZD6738] (first compound max 1 µM, 7x7, partner max 10 µM)	CML-T1 (Chronic Myelogenous Leukemia)	0.976
Cc1cc2ncnn2cc1Nc1ncc2c(n1)n(C1CCOCC1)c(=O)n2C [AZD7648] + C=CCn1c(=O)c2cnc(Nc3ccc(N4CCN(C)CC4)cc3)nc2n1-c1cccc(C(C)(C)O)n1 [AZD1775] (first compound max 10 µM, partner max 1 µM)	CML-T1 (Chronic Myelogenous Leukemia)	0.941

* * *

Tested on: LAMA-84 (Chronic Myelogenous Leukemia)
protocol details: combination Emax (second highest fraction inhibited in the dose matrix, 72 h); higher = more inhibition; extreme values may be limits of the assay
The entries below are paired with their reported combination Emax.
readout: combination Emax

molecule	obs value
CC1(C)CCC(CN2CCN(c3ccc(C(=O)NS(=O)(=O)c4ccc(NCC5CCOCC5)c([N+](=O)[O-])c4)c(Oc4cnc5[nH]ccc5c4)c3)CC2)=C(c2ccc(Cl)cc2)C1 [Venetoclax] + C[C@@H]1COCCN1C2=NC(=NC(=C2)C3(CC3)[S@](=N)(=O)C)C4=C5C=CNC5=NC=C4 [AZD6738] (first compound max 1 µM, 7x7, partner max 10 µM)	0.975
CN(CCO)CC[C@H](CSc1ccccc1)Nc1ccc(S(=O)(=O)NC(=O)c2ccc(N3CCC([C@@H](O)c4ccccc4-c4ccc(Cl)cc4)CC3)cc2)cc1S(=O)(=O)C(F)(F)F [AZD4320] + C[C@@H]1COCCN1C2=NC(=NC(=C2)C3(CC3)[S@](=N)(=O)C)C4=C5C=CNC5=NC=C4 [AZD6738] (first compound max 1 µM, 7x7, partner max 10 µM)	0.989
CN(CCO)CC[C@H](CSc1ccccc1)Nc1ccc(S(=O)(=O)NC(=O)c2ccc(N3CCC([C@@H](O)c4ccccc4-c4ccc(Cl)cc4)CC3)cc2)cc1S(=O)(=O)C(F)(F)F [AZD4320] + C[C@@H](Nc1cc(F)cc(F)c1)c1cc(C(=O)N(C)C)cc2c(=O)cc(N3CCOCC3)oc12 [AZD8186] (first compound max 1 µM, 7x7, partner max 3 µM)	0.728

* * *

Below, each entry is listed with its recorded combination Emax.
Tested on: AsPC-1 (Pancreatic Carcinoma)
protocol details: combination Emax (second highest fraction inhibited in the dose matrix, 72 h); higher = more inhibition; extreme values may be limits of the assay

compound	combination Emax
COc1nnc2ccc(N3CCC(c4ccc(OCCN5CCN(C)C(=O)[C@H]5C)cc4)CC3)nn12 [AZD5153] + CC1(C)CCC(CN2CCN(c3ccc(C(=O)NS(=O)(=O)c4ccc(NCC5CCOCC5)c([N+](=O)[O-])c4)c(Oc4cnc5[nH]ccc5c4)c3)CC2)=C(c2ccc(Cl)cc2)C1 [Venetoclax] (first compound max 1 µM, 7x7, partner max 1 µM)	0.176
C=CCn1c(=O)c2cnc(Nc3ccc(N4CCN(C)CC4)cc3)nc2n1-c1cccc(C(C)(C)O)n1 [AZD1775] + O=C(c1cc(Cc2n[nH]c(=O)c3ccccc23)ccc1F)N1CCN(C(=O)C2CC2)CC1 [Olaparib] (first compound max 1 µM, partner max 10 µM)	0.29

* * *

Tested on: OCI-AML5 (Acute Myeloid Leukemia)
protocol details: combination Emax (second highest fraction inhibited in the dose matrix, 72 h); higher = more inhibition; extreme values may be limits of the assay
readout: combination Emax

compound	readout	obs value
COc1nnc2ccc(N3CCC(c4ccc(OCCN5CCN(C)C(=O)[C@H]5C)cc4)CC3)nn12 [AZD5153] + Cc1c2c(nn1C)CSCc1cc(n(C)n1)CSc1cc(c3ccccc3c1)OCCCc1c(C(=O)O)n(C)c3c-2c(Cl)ccc13 [AZD5991] (first compound max 1 µM, 7x7, partner max 1 µM)	combination Emax	0.997
C=CCn1c(=O)c2cnc(Nc3ccc(N4CCN(C)CC4)cc3)nc2n1-c1cccc(C(C)(C)O)n1 [AZD1775] + C[C@@H]1COCCN1C2=NC(=NC(=C2)C3(CC3)[S@](=N)(=O)C)C4=C5C=CNC5=NC=C4 [AZD6738] (first compound max 1 µM, partner max 10 µM)	combination Emax	0.981
Cc1c2c(nn1C)CSCc1cc(n(C)n1)CSc1cc(c3ccccc3c1)OCCCc1c(C(=O)O)n(C)c3c-2c(Cl)ccc13 [AZD5991] + Cc1cc2ncnn2cc1Nc1ncc2c(n1)n(C1CCOCC1)c(=O)n2C [AZD7648] (first compound max 1 µM, 7x7, partner max 10 µM)	combination Emax	1
C[C@@H]1COCCN1c1cc(C2([S@](C)(=N)=O)CC2)nc(-c2ccnc3[nH]ccc23)n1 [AZD6738] + O=C(c1cc(Cc2n[nH]c(=O)c3ccccc23)ccc1F)N1CCN(C(=O)C2CC2)CC1 [Olaparib] (first compound max 10 µM, 7x7, partner max 10 µM)	combination Emax	0.907
C[C@@H](c1ccc2nccn2c1)n1nnc2ncc(-c3cnn(C)c3)nc21 [Savolitinib] + CN(CC[C@H](CSC1=CC=CC=C1)NC2=C(C=C(C=C2)S(=O)(=O)NC(=O)C3=CC=C(C=C3)N4CCC(CC4)[C@H](C5=CC=CC=C5C6=CC=C(C=C6)Cl)O)S(=O)(=O)C(F)(F)F)CCO [AZD4320] (first compound max 1 µM, 7x7, partner max 1 µM)	combination Emax	1
Cc1c2c(nn1C)CSCc1cc(n(C)n1)CSc1cc(c3ccccc3c1)OCCCc1c(C(=O)O)n(C)c3c-2c(Cl)ccc13 [AZD5991] + Cn1cnc2c(F)c(Nc3ccc(Br)cc3Cl)c(C(=O)NOCCO)cc21 [Selumetinib] (first compound max 1 µM, 7x7, partner max 3 µM)	combination Emax	1
CC(=O)c1c(C)c2cnc(Nc3ccc(N4CCNCC4)cn3)nc2n(C2CCCC2)c1=O [Palbociclib] + Cn1cnc2c(F)c(Nc3ccc(Br)cc3Cl)c(C(=O)NOCCO)cc21 [Selumetinib] (first compound max 10 µM, 7x7, partner max 10 µM)	combination Emax	0.833
